# EXPERIMENT_DESCRIPTION: qHTS assay for cell viability of HEK293 cells (AID 743288); further: on the % scale 0 is the no-effect control and ±100 the full control effect; nearly all actives have a fitted effect of over 50% in size
# EXPERIMENTAL_CONDITIONS: ATP luminescence (CellTiter-Glo), 18 h, active compounds read low
# Source text: National Center for Advancing Translational Sciences [NCATS] NIH Chemical Genomics Center [NCGC] U.S. Environmental Protection Agency [EPA] National Institutes of Environmental Health Sciences [NIEHS] National Toxicology Program [NTP] […] The CellTiter-Glo Luminescent Cell Viability Assay (Promega, Madison, WI) is a homogeneous method to determine the number of viable cells in culture based on quantitation of the ATP present, which signals the presence of metabolically active cells. […]
Inconclusive results are not listed.
MEASURE: max response (%)

CCC(C)(C)C(=O)O : -3.48
O=C(O)/C=C/C(=O)O : -0.445
CCCOCC(C)O (configuration not stated) : 2.22
C=CC(=O)NC(C)C : -0.14
O=C(O)CNC(=O)c1ccc(CO)o1 : -5.2
CCCCC(CC)COCC1CO1 (configuration not stated) : 0.479
O=Cc1ccc(Cl)cc1 : -6.94
ON=C1CCCCC1 : 1.04
Nc1ccccc1[N+](=O)[O-] : -7.67
CCNc1cc(O)ccc1C : 2.21
OC1CCCC1 : 3.74
CCCCC(CC)CNCC(CC)CCCC (configuration not stated) : -4.58
Nc1ccc(Cl)cc1[N+](=O)[O-] : -4.72
CC(C)Nc1ccccc1 : -1.42
CC(=O)c1cccc([N+](=O)[O-])c1 : -8.78
O=C(Cl)c1ccccc1[N+](=O)[O-] : -5.53
Cc1cccc(C(=O)O)c1 : 2.24
FC(F)(F)c1cccc(Cl)c1 : -5.31
O=C(Cl)c1cccc([N+](=O)[O-])c1 : -15.1
COc1cccc2sc(N)nc12 : -3.84
OCCO : -10.8
O=Cc1ccc(CO)o1 : 6.14
NCCCCCCN : 10.3
CC(C)C=O : -10.3
CC(=O)c1nccs1 : -7.91
COC(=O)CC#N : 6.11
O=[N+]([O-])c1ccc(Cl)cc1Cl : 0.0931
CCCOCC(C)OCC(C)O (configuration not stated) : -8.35
CC=C(Cl)Cl : 5.81
O=C(O)CCSSCCC(=O)O : -9.15
Cc1ccc(Cl)cc1 : -4.66
CCOCCOCC : 0.474
Cc1ccccc1C(N)=O : 10.1
CC=O : -3.08
ICCc1ccccc1 : -14.1
C(=C/c1ccccc1)/c1ccccc1 : -10.3
O=C(Cl)c1c(Cl)cccc1Cl : 0.0079

* * *

# EXPERIMENT_DESCRIPTION: Cell Viability - LYMP2-007 (AID 979);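 further: cells exposed to compound for 24 h before reading; nearly all actives have a fitted effect of over 60% in size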
# EXPERIMENTAL_CONDITIONS: LYMP2-007 lymphoblastoid cell viability; series mostly up to 92.2 µM
Records with an inconclusive call do not appear. The source made the active and inactive calls. Calls follow the shape of the dose curve; as a rule, active = well fitted cell-killing curve with a large enough effect; inconclusive = small, poorly fitted or top-dose-only effect; inactive = flat fitted curve, though single readings scatter.
Outcomes: yes (1) (active), no (0) (inactive)

CC=O : no (0)
C1CCOC1 : no (0)
Fc1ccccc1 : no (0)
Cc1ccccc1C(N)=O : no (0)
c1ccc2c(c1)Oc1ccccc1S2 : no (0)
CC(C)(O)CCC(C)(C)O : no (0)
CCCCC/C=C/C=C/C=O : yes (1)
Cc1cc(C(=O)O)ccc1[N+](=O)[O-] : no (0)
CC(C)=CCl : no (0)
CCC=O : no (0)
CC1CCCO1 (stereo not drawn) : no (0)
CC(C)CO : no (0)
C=Cc1ccccc1C=C : no (0)
Nc1cccc(N)c1 : no (0)
Cc1cccc([N+](=O)[O-])c1C(=O)O : no (0)
CC(=O)Nc1ccc(C)cc1 : no (0)
Clc1cc(Cl)cc(Cl)c1 : no (0)
c1ccc2c(c1)ccc1ncccc12 : no (0)
C=CCn1c(=O)n(CC=C)c(=O)n(CC=C)c1=O : no (0)
C=C(C)C1CC=C(C)C(OC(C)=O)C1 (stereo not drawn) : no (0)
c1ccsc1 : no (0)
CCc1ccccc1 : no (0)
O=Cc1ccc(C(=O)O)cc1 : no (0)
C1COC1 : no (0)
C=CC(=O)NC(C)C : no (0)
O=C(O)c1ccc(CO)o1 : no (0)
O=C1CCC(=O)O1 : no (0)
O=Cc1ccc(Cl)cc1 : no (0)
O=C1CCCCC1 : no (0)
COc1ccc(N)c(C)c1 : no (0)
CCCCC(CC)COC(=O)CCCCC(=O)OCC(CC)CCCC (stereo not drawn) : no (0)
CN(C)CCCNCCCN : no (0)
O=[N+]([O-])c1c(Cl)cc(Cl)cc1Cl : no (0)
Cc1c(C(=O)O)cccc1[N+](=O)[O-] : no (0)
Clc1ccc(Cl)c(Cl)c1Cl : no (0)
O=C(O)c1ccccc1C(=O)O : no (0)
CCCOCC(C)OCC(C)O (stereo not drawn) : no (0)
N#CC1(O)CCCCC1 : no (0)
CCOc1cccc(N)c1 : no (0)
CCc1ccccc1O : no (0)
ClCCl : no (0)
Cc1ccc2cccnc2c1 : no (0)
NS(=O)(=O)O : no (0)
CCCC(C)CO (stereo not drawn) : no (0)
Cc1ccc(C)c(O)c1 : no (0)
C=CCCCC : no (0)
CNc1ccccc1 : no (0)
CCOc1ccccc1N : no (0)
CN(C)c1cccc(O)c1 : no (0)
NC(=O)CCCCC(N)=O : no (0)
Cc1cccc2ccccc12 : no (0)
c1ccc2[nH]cnc2c1 : no (0)
CC(=O)c1cccc([N+](=O)[O-])c1 : no (0)
Nc1c(Cl)cc(Cl)cc1Cl : no (0)
O=[N+]([O-])c1ccc2nc[nH]c2c1 : no (0)
O=C1OC(=O)c2c(Cl)c(Cl)c(Cl)c(Cl)c21 : no (0)
O=C(O)c1ccc(C(=O)O)cc1 : no (0)
O=[N+]([O-])c1ccc(NCCO)c(OCCO)c1 : no (0)
CC(=O)Nc1ccccc1C : no (0)
Cc1ccc2oc(=O)ccc2c1 : no (0)
COc1ccccc1[N+](=O)[O-] : no (0)
CC/C=C/C#N : no (0)
Nc1cccc(S(=O)(=O)O)c1 : no (0)
O=C(O[C@@H](C(=O)O)[C@@H](OC(=O)c1ccccc1)C(=O)O)c1ccccc1 : no (0)
NC=O : no (0)
O=[N+]([O-])c1ccc(CCO)cc1 : no (0)
CCN(CC)c1cccc(O)c1 : no (0)
COc1ccc(N)c(OC)c1 : no (0)
O=[N+]([O-])c1cc(C(F)(F)F)ccc1Cl : no (0)
O=C1C=CCCC1 : no (0)
Cc1ccc(C)c([N+](=O)[O-])c1 : no (0)
O=C(O)c1cccc(Cl)c1Cl : no (0)
CC1CCC2CC1C2(C)C (stereo not drawn) : no (0)
